The origin of these recorded values is patent US20040110787A1.

# study system: UniProt P04293
# Sequence (P04293 whole entry): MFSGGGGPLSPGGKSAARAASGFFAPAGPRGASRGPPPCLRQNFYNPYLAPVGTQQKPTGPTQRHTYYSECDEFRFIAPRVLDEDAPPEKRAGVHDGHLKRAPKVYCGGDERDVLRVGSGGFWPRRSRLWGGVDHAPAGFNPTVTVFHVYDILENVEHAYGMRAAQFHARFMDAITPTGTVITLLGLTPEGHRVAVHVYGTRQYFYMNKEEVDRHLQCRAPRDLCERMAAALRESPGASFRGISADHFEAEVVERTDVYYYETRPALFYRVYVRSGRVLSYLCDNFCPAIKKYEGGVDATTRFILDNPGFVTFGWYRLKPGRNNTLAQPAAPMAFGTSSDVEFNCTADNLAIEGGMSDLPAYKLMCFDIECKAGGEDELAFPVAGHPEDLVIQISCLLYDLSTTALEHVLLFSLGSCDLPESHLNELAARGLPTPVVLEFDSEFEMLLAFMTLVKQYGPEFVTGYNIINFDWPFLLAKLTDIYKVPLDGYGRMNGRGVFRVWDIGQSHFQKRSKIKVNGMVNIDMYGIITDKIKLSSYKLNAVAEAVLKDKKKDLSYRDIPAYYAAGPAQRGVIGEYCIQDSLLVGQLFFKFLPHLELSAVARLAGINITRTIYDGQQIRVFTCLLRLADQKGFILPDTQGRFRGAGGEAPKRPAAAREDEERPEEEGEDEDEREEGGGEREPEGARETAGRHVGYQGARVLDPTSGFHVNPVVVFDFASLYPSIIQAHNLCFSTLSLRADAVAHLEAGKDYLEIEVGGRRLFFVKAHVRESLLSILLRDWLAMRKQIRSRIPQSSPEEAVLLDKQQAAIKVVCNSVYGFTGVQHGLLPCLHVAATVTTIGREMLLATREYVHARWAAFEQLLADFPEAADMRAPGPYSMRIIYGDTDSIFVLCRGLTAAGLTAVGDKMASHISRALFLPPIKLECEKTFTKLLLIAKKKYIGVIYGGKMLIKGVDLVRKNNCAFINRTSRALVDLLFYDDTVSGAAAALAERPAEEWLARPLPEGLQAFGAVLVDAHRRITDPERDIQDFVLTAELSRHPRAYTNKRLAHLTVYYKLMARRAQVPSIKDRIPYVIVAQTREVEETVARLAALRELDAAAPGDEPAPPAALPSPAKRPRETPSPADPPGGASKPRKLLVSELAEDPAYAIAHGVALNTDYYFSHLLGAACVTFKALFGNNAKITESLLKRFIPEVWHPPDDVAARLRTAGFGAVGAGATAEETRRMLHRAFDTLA
measurement type: IC50 (nM)

Solved cases (5 shown):
compound="CN(Cc1cc2c(=O)c(C(=O)NCc3ccc(Cl)cc3)cn(C)c2s1)CC(O)c1ncccn1 (racemic)" test_result=150
compound="CN(Cc1cc2c(=O)c(C(=O)NCc3ccc(Cl)cc3)cn(C)c2s1)CC(O)c1ccncc1 (racemic)" test_result=470
compound="CCCn1cc(C(=O)NCc2ccc(Cl)cc2)c(=O)c2cc(CN(C)CC(O)c3cnccn3)sc21 (racemic)" test_result=1090
compound="CN(Cc1cc2c(=O)c(C(=O)NCc3ccc(Cl)cc3)cn(C)c2s1)CC(O)c1cccnn1 (centres unmarked)" test_result=840
compound="CCn1cc(C(=O)NCc2ccc(Cl)cc2)c(=O)c2cc(CN(C)CC(O)c3cnccn3)sc21 (racemic)" test_result=550

[A] CN(Cc1cc2c(=O)c(C(=O)NCc3ccc(F)cc3)cn(C)c2s1)C[C@@H](O)c1ccccn1
[B] CN(Cc1cc2c(=O)c(C(=O)NCc3ccc(Cl)cc3)cn(C)c2s1)C[C@@H](O)c1ccccn1
q: Identify the entry with the larger IC50. Options: A and B Return value: the label identifying the chosen record.
a: A
(A: 490 nM, B: 60 nM)

[1] CN(Cc1cc2c(=O)c(C(=O)NCc3ccc(Cl)cc3)cn(C)c2s1)CC(O)c1cccnc1 (racemic) [Example 1]
[2] CN(Cc1cc2c(=O)c(C(=O)NCc3ccc(Cl)cc3)cn(C)c2s1)CC(O)c1ccc2ccccc2n1 (racemic)
[3] CN(Cc1cc2c(=O)c(C(=O)NCc3ccc(Cl)cc3)cn(C)c2s1)C[C@@H](O)c1cnccn1
[4] CN(Cc1cc2c(=O)c(C(=O)NCc3ccc(Cl)cc3)cn(C)c2s1)CC(O)c1cccnc1 (single isomer, unassigned; (+)) [Example 2]
q: Order the entries by their reported IC50, beginning at the minimum. Answer by writing out the labels in the requested order.
a: 3, 2, 4, 1
